Just for reference, the supplement of paper PMC9428881 is where these values come from.

- Assay Procedure: background-corrected fluorescence of 3'-dye-labeled ssDNA relative to brightest sequence (3'-GCGCG) (fraction); higher = brighter dye fluorescence (less quenching)
- Cond: dye: Cy5 (3' terminal)
# background-corrected fluorescence per record follows
Readout Kind: background-corrected fluorescence

Query Sequence | Observed Result
TTTTTTGCGCAGCATGCTCATTTTTTTTTTTTTTTATTAG [GATTA] | 0.421
TTTTTGCAGCATGCTCATCATTTTTTTTTTTTTTTTTAGG [GGATT] | 0.489
TTTTTTCATCATCATGCGCATTTTTTTTTTTTTTTGGGAT [TAGGG] | 0.506
TTTTTGCATGCTCATGCTGCTTTTTTTTTTTTTTTTAGAA [AAGAT] | 0.533
TTTTTTCAGCAGCATGCTGCTTTTTTTTTTTTTTTGTTAA [AATTG] | 0.446
TTTTTTGAGCAGCATGCTCATTTTTTTTTTTTTTTCTTAG [GATTC] | 0.395
TTTTTTGCTGAGCATGATGATTTTTTTTTTTTTTTACTCC [CCTCA] | 0.3
TTTTTTGATCATGCTGCTCATTTTTTTTTTTTTTTCGAAG [GAAGC] | 0.463
TTTTTGCATGCTCAGCATGCTTTTTTTTTTTTTTTTAGTA [ATGAT] | 0.491
TTTTTTCATGATCATCAGCATTTTTTTTTTTTTTTGCGGT [TGGCG] | 0.566
TTTTTTCATGCTGATGCTCATTTTTTTTTTTTTTTGACAG | 0.423
TTTTTTGCTCATCATGCTGATTTTTTTTTTTTTTTAGGAC [CAGGA] | 0.383
TTTTTTCATGCTGCTCAGCATTTTTTTTTTTTTTTGAAGT | 0.529
TTTTTTGCTGATCATGATGATTTTTTTTTTTTTTTACGCC [CCGCA] | 0.393
TTTTTGCATCAGCATGATCATTTTTTTTTTTTTTTTGTCG [GCTGT] | 0.392
TTTTTTCATCAGCATCATCATTTTTTTTTTTTTTTGGTGG | 0.483
TTTTTGCATGCTGAGCATGATTTTTTTTTTTTTTTTACTC [CTCAT] | 0.273
TTTTTTGCGCAGCATGAGCATTTTTTTTTTTTTTTATTCT [TCTTA] | 0.326
TTTTTTGCTCATGATGCTCATTTTTTTTTTTTTTTAGCAG [GACGA] | 0.42
TTTTTTGCTCATGATCAGCATTTTTTTTTTTTTTTAGCGT [TGCGA] | 0.52
TTTTTTCATCATGCTGCTGATTTTTTTTTTTTTTTGGAAC [CAAGG] | 0.352

###

- Assay Procedure: background-corrected fluorescence of 3'-dye-labeled ssDNA relative to brightest sequence (3'-GCGCG) (fraction); higher = brighter dye fluorescence (less quenching)
- Cond: dye: Cy3 (3' terminal)
Readout Kind: background-corrected fluorescence

Query Sequence | Observed Result
TTTTTGCATGATCATGAGCATTTTTTTTTTTTTTTTCGCT | 0.486
TTTTTTGAGCATGCTGATGATTTTTTTTTTTTTTTCTACC [CCATC] | 0.375
TTTTTGCATCATGATGCGCATTTTTTTTTTTTTTTTGCAT [TACGT] | 0.529
TTTTTGCATCATCATGCTCATTTTTTTTTTTTTTTTGGAG [GAGGT] | 0.589
TTTTTTCATGCTCATGCTCATTTTTTTTTTTTTTTGAGAG | 0.628
TTTTTTGATGATGCTCATGATTTTTTTTTTTTTTTCCAGC [CGACC] | 0.503
TTTTTTGCGCATGATCAGCATTTTTTTTTTTTTTTATCGT [TGCTA] | 0.605
TTTTTTGCTGATGAGCATCATTTTTTTTTTTTTTTACCTG [GTCCA] | 0.499
TTTTTTCATCATGCTGATGCTTTTTTTTTTTTTTTGGACA [ACAGG] | 0.602
TTTTTGCATCATGCTGATGCTTTTTTTTTTTTTTTTGACA [ACAGT] | 0.527
